# assayDetails: Volume of distribution at steady state in rat at 2 mg/kg, iv
# Format: ADME, organism-based
# Set-up: dose 2 mg/kg, route intravenous
# experimentalSetup: in vivo, read-out: Vdss
measureName: Vd
Returns: string containing the number followed by the unit.

Form field Vd, entry CCNC(=O)Nc1ccc(Oc2ncnc(N)c2/C=N/OC)cc1Cl : 0.4 L/kg

----------
# assayDetails: Cmax in rat at 10 mg/kg, po
# Assay type: ADME, organism-based
# Design: dose 10 mg/kg, route oral
# experimentalSetup: in vivo
measureName: Cmax (ng/mL)
Reply with just the number (in ng/mL).

Form field Cmax, entry CCNC(=O)Nc1ccc(Oc2ncnc(N)c2/C=N/OC)cc1Cl : 1030
